Hi there, I'd appreciate the recorded ΔΨm (composite Z-score) for every entry that follows.
- Test system: mitochondrial membrane potential
- Assay type: cell-based, mouse
- experimental.setup: Conc 20 μM; normalized score vs mock-treated (DMSO) wells
Write the value as a bare number.

INPUT: Report ΔΨm (composite Z-score) for COC(=O)[C@@H]1OC(=O)[C@H]2O[C@@]23[C@@]1(C)CCC1[C@@]2(C)CCC(=O)C(C)(C)C2C[C@@H](OC(C)=O)[C@]13C (stereo partly drawn) [dihydrogeduninic acid, methyl ester] tested on mitochondrial membrane potential.
OUTPUT: −0.571

INPUT: Lab request: please report ΔΨm (composite Z-score) under test system mitochondrial membrane potential for C[C@@H]1CC[C@H]2[C@](C)(CO)[C@@H](O)CC[C@]2(C)[C@@]12CC[C@@](CO)(CCO)O2
OUTPUT: 0.277

INPUT: Return ΔΨm (composite Z-score) measured with mitochondrial membrane potential given this compound: CC(=O)O[C@@H]1CC2C(C)(CC[C@H](O)C2(C)C)C2CC[C@]3(C)C(=CC(=O)O[C@H]3c3ccoc3)C21C (stereo partly drawn) [3beta-hydroxydeoxodihydrodeoxygedunin]
OUTPUT: 1.048

INPUT: Given the entry CC(C)c1ccc2c(c1O)CC[C@H]1C3=C(CC[C@]21C)C(=O)OC3 [triptophenolide] , what ΔΨm (composite Z-score) was observed with mitochondrial membrane potential?
OUTPUT: 1.886

INPUT: I'm curious: which ΔΨm (composite Z-score) was measured for CC12CCC(O)CC1CCc1ccccc12 (stereo not drawn) tested on mitochondrial membrane potential?
OUTPUT: −0.339

INPUT: Please state recorded ΔΨm (composite Z-score) (tested on mitochondrial membrane potential) of OC[C@@H](O)[C@@H](OC1O[C@H](CO)[C@@H](O)[C@H](O)[C@H]1O)[C@H](O)[C@@H](O)CO (stereo partly drawn) [glucitol-4-gucopyanoside]
OUTPUT: −0.454

* * *

- System: cellular dehydrogenase activity
- experimental.setup: Table 4; C2C12 myotubes, 48 h, composite Z-score
reported.property: MTT
Give the figure only, with no unit attached.

INPUT: Return reported MTT; argument: COC(=O)Nc1nc2ccc(SC(C)C)cc2[nH]1 [methiazole, reference compound]
OUTPUT: −0.654

INPUT: Looking for the measured MTT of CCC(C)C(OC(C)=O)C(=O)O[C@H]1[C@H](O)[C@@H]2[C@@]3(C)C=CC(=O)C(C)(C)[C@@H]3C[C@@H](OC(=O)C(O)C(C)C)[C@@]2(C)[C@@]23O[C@@H]2C[C@@H](c2ccoc2)[C@]13C (stereo partly drawn) [heudelottin C, reference compound] , can you help?
OUTPUT: −0.393

INPUT: What does the data say about its MTT? Entry: Cc1cc(O)c2c(c1O)C(=O)c1c(O)cc(C)c(O)c1C2=O [reference compound]
OUTPUT: −0.344

* * *

- Tested on: C2C12 myotubes
- experimental.setup: composite Z-score vs DMSO; Conc 20 μM
reported.property: Viability
Please state the value as a number alone, without comment.

INPUT: What value of measured Viability is listed for C[C@@]12CCc3occc3[C@H]1CC[C@@]13C[C@@H](CC[C@H]12)[C@@](O)(CO)C3 ?
OUTPUT: 0.025

INPUT: I'd like to know its Viability. The molecule in question is COc1ccc2c(c1OC)C(=O)O[C@@H]2[C@H]1c2cc3c(cc2CCN1C)OCO3 [1s,9r-hydrastine]
OUTPUT: 0.650

INPUT: Find the recorded Viability belonging to COC(=O)N/N=C/c1c[n+]([O-])c2ccccc2[n+]1[O-] and report it.
OUTPUT: −0.905

INPUT: # lookup: Viability of O=[N+]([O-])NC1=NCCN1Cc1ccc(Cl)nc1
OUTPUT: −0.121

INPUT: Would you kindly share the measured Viability for C[C@]12CCC(=O)C=C1CC[C@@H]1[C@@H]2C(=O)C[C@@]2(C)[C@H]1CC[C@]2(O)C(=O)CO ?
OUTPUT: 0.644

INPUT: I'd like to know its Viability. The molecule in question is CN1C(C)(C)CCCC1(C)C
OUTPUT: −0.822

INPUT: Form field: reported Viability of CC(COc1ccccc1)NC(C)C(O)c1ccc(O)cc1 (centres unmarked)
OUTPUT: −0.141

INPUT: What does the data say about its Viability? Entry: CC[C@@H](C(=O)[C@@H](C)[C@@H](O)[C@H](C)CCc1ccc(C)c(O)c1C(=O)O)[C@H]1O[C@](CC)([C@H]2CC[C@](O)(CC)[C@H](C)O2)C[C@@H]1C [lasalocid, reference compound]
OUTPUT: −1.090

* * *

- System: cellular dehydrogenase activity
- experimental.setup: Conc 20 μM; normalized score vs mock-treated (DMSO) wells
Assign MTT (composite Z-score) to each entry below.
Keep it simple and answer with nothing but the number.

INPUT: Please give the measured MTT (composite Z-score) for this compound: CCOc1cc(CC(=O)c2ccc(O)c(O)c2O)ccc1O
OUTPUT: −1.279

INPUT: Could you share which MTT (composite Z-score) value was measured for COc1cc(O)c2c(=O)c(-c3ccc(O)cc3)coc2c1OC ?
OUTPUT: −1.606

INPUT: Returns the measured MTT (composite Z-score) for the input compound. Input: CC(=O)O[C@@H]1c2c(ccc3ccc(=O)oc23)OC(C)(C)[C@@H]1OC(=O)CC(C)C [dihydrosamidin, reference compound]
OUTPUT: −0.826

INPUT: Entry C[C@@H]1O[C@@H](O[C@H]2[C@H](O[C@H]3CC[C@@]4(C)[C@@H](CC[C@]5(C)[C@@H]4CC=C4[C@@H]6CC(C)(C)CC[C@]6(C(=O)O[C@@H]6O[C@H](CO[C@@H]7O[C@H](CO)[C@@H](O[C@@H]8O[C@@H](C)[C@H](O)[C@@H](O)[C@H]8O)[C@H](O)[C@H]7O)[C@@H](O)[C@H](O)[C@H]6O)CC[C@]45C)[C@]3(C)CO)OC[C@H](O)[C@@H]2O)[C@H](O)[C@H](O)[C@H]1O [hederacoside C] : reported MTT (composite Z-score) = ?
OUTPUT: −1.226

INPUT: Quick check: MTT (composite Z-score) of CC(C)(O)CC[C@@H](O)[C@](C)(O)[C@H]1CC[C@@]2(O)C3=CC(=O)[C@@H]4C[C@@H](O)[C@@H](O)C[C@]4(C)[C@H]3CC[C@]12C ?
OUTPUT: −0.545

INPUT: Item NC(=O)C1(O)C[C@@H](O)C(O)[C@H](O)C1 (stereo partly drawn) [quinamide] has what recorded MTT (composite Z-score)?
OUTPUT: −1.034

INPUT: Using the record for COc1ccc2c(c1)OC/C(=C/c1ccc(OC)c(OC)c1)C2=O , report its MTT (composite Z-score).
OUTPUT: −0.980

INPUT: Request the reported MTT (composite Z-score) associated with COc1ccc(-c2coc3cc(O)cc(O)c3c2=O)cc1
OUTPUT: −0.325

INPUT: Can you share its MTT (composite Z-score)? I mean this compound: CC(=O)O[C@@H]1CC2C(C)(CC[C@H](O)C2(C)C)C2CC[C@]3(C)C(=CC(=O)O[C@H]3c3ccoc3)C21C (stereo partly drawn) [3beta-hydroxydeoxodihydrodeoxygedunin]
OUTPUT: −0.656

INPUT: # get_value(readout='MTT (composite Z-score)', item= CC(=O)Oc1cc2c(c(C)c1OC(C)=O)CC=C1[C@@]2(C)CC[C@@]2(C)C3C[C@](C)(C(=O)O)CC[C@]3(C)CC[C@]12C (stereo partly drawn) [dihydrocelastryl diacetate] )
OUTPUT: −4.098

INPUT: Record request: MTT (composite Z-score) value, item CC(=O)O[C@@H]1C[C@H]2C(C)(C)CCC(=O)[C@]2(C)[C@H]2CC[C@@]3(C)[C@H](c4ccoc4)OC(=O)[C@H]4O[C@]43[C@@]21C [2,3-dihydroisogedunin]
OUTPUT: −1.287

INPUT: Value lookup for MTT (composite Z-score); key = OC[C@H]1O[C@@H](Oc2cc(O)cc(/C=C/c3ccc(O)cc3)c2)[C@H](O)[C@@H](O)[C@@H]1O
OUTPUT: −0.826

* * *

- Test system: cellular dehydrogenase activity
- experimental.setup: Conc 20 μM; normalized score vs mock-treated (DMSO) wells
For each record, write down the corresponding MTT (composite Z-score).
Could you keep your reply to the number by itself?

INPUT: Fill in the blank: the reported MTT (composite Z-score) of COC(=O)[C@@H]1OC(=O)[C@H]2O[C@@]23[C@@]1(C)CCC1[C@@]2(C)CCC(=O)C(C)(C)C2C[C@@H](OC(C)=O)[C@]13C (stereo partly drawn) [dihydrogeduninic acid, methyl ester] is ____.
OUTPUT: −1.004

INPUT: Please give the measured MTT (composite Z-score) for this molecule: CC(=O)O[C@H]1CC[C@]2(C)C(C[C@H](OC(C)=O)[C@]3(C)C4=CC(=O)OC(c5ccoc5)[C@@]4(C)CCC23)C1(C)C (stereo partly drawn)
OUTPUT: −0.810

INPUT: Request the reported MTT (composite Z-score) associated with C[C@@H]1CC[C@H]2[C@](C)(CO)[C@@H](O)CC[C@]2(C)[C@@]12CC[C@@](CO)(CCO)O2
OUTPUT: −0.238

INPUT: Recorded MTT (composite Z-score) of O=C(CCCCCCCCCCCCC1CCCC1)Nc1ccc(S(=O)(=O)c2ccc(NC(=O)CCCCCCCCCCCCC3CCCC3)cc2)cc1 , please.
OUTPUT: −0.289

INPUT: Entry O=C(O)c1nc2cc(Cl)c(Cl)cc2nc1O : reported MTT (composite Z-score) = ?
OUTPUT: −0.131

INPUT: Please give the measured MTT (composite Z-score) for this molecule: Cc1c(O)c(C(=O)CC(C)C)c2oc3c(C(=O)CC(C)C)c(O)c(C)c(O)c3c2c1O
OUTPUT: 2.413
